These data points were gathered from patent US20250027068.

Each entry below carries its recorded Enzyme Activity Endpoint Assay: IgG.
target-system: pooled human IgG (human IgG1, 2, 3 and 4)
value-kind: Enzyme Activity Endpoint Assay: IgG (ng/µL)

# protein, units-of-measure, number
rows = [
    ("PRT-573 (protein) MANQEIRYSEETPSTITSVWTKGVTPPTQFIQNEDVLHAPYIANQGWYDITKTFNGKDDLLCGAATAGNMLHWWFDQNKEQIENYLKKHPEKQKINFNGEQMFDVKEAIDTKDSQTDSALFSYFKDKAFPYLSTKHLGVFPDHVIDMFINGYRLSLTNHGPTPVKRQTKDPRGGIFDAVFTRGDQSKLLTSRHDFKEKTLNEISQLIKQELTEGKALGLSHTYANVRINHVINLWGADFNAEGNLEAIYVTDSDSNASIGMKKYYVGVNSAGKVAISAKEIEGDNIGAQVLGLFTLSTGQDIWQQTNLEHHHHHH", "ng/µL", 0),
    ("PRT-595 (protein) MANQEIRYSEETPSTITSVWTKGVTPPTDFIQNEDVLHAPYIANQGWYDITKTFNGKDDLLCGAATAGNMLHWWFDQNKEQIENYLKKHPEKQKINFNGEQMFDVKEAIDTKDSQTDSALFEYFKDKAFPYLSTKHLGVFPDHVIDMFINGYRLSLTNHGPTPVKRGTKDPRGGIFDAVFTRGDQSKLLTSRHDFKEKNLNEISDLIKQELTEGKALGLSHTYANVRINHVINLWGADFNAEGNLEAIYVTDSDSNASIGMKKYYVGVNSAGKVAISAKEIEGDNIGAQVLGLFTLSTGQDIWNQTNLEHHHHHH", "ng/µL", 0),
]
